- measured target: MCL-1 (Homo sapiens (Human), UniProt Q07820, K194A/K197A/R201A)
- Sequence (Q07820 whole entry K194A/K197A/R201A, looked up): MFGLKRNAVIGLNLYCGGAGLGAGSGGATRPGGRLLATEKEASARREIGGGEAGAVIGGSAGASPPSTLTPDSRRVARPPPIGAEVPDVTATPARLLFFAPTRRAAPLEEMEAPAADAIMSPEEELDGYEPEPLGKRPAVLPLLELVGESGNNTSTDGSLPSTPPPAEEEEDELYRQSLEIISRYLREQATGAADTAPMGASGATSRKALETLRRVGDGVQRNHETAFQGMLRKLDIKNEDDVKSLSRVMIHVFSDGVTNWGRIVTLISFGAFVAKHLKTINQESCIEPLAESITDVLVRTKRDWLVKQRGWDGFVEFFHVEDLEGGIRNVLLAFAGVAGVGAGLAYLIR
- test: Protein-compound interaction assay (SPR assay, Assay 8)
- experimental conditions: immobilized MBP-MCL-1, 25° C., geometric mean
measurement kind: pKd
The value called pKd is obtained by taking minus log10 of the concentration in mol/L.

compound | pKd
CCc1c2c(nn1C)COCCCCn1c(C(=O)O)c(CCCOc3cccc4cc(F)ccc34)c3ccc(F)c-2c31 (single isomer, unassigned; enantiomer 2) [Example 23] | 7.57
CCc1c2c(nn1C)COCCCCn1c(C(=O)O)c(CCCOc3cccc4cc(F)ccc34)c3ccc(F)c-2c31 (single isomer, unassigned; enantiomer 1) [Example 24] | 8.54
Cc1c2c(nn1C)COCCCCn1c(C(=O)O)c(CCCOc3cccc4cc(F)ccc34)c3ccc(F)c-2c31 (single isomer, unassigned; enantiomer 1) [Example 13] | 9.16
CCc1c2c(nn1C)COCCCCn1c(C(=O)O)c(CCCOc3cccc4ccccc34)c3ccc(F)c-2c31 (single isomer, unassigned; enantiomer 1) [Example 7] | 8.64

Consider the record given below.
Q: Returns the measured pKd for the input compound. Input: Cc1c2c(nn1C)COCCCCn1c(C(=O)O)c(CCCOc3cccc4ccccc34)c3ccc(F)c-2c31 (single isomer, unassigned; enantiomer 1) [Example 3]
A: 8.38
